These entries and their values trace back to paper PMC10112521.

molecular target: UniProt:P10275; experiment: AR2 assay, agonist mode: ligand-dependent AR homodimerization (NanoBiT luciferase complementation) in stable HepG2-AR2 cells; format: cell-based; settings: sheet agonist_fits; Hill model gain slope (Hill coefficient); 0 given where win_model is Constant
Listed below: hill_gw values for each entry.
REPORTED_ENDPOINT: hill_gw

- O=C(c1ccc(O)cc1O)c1ccc(O)cc1O [2,2',4,4'-Tetrahydroxybenzophenone]: 3.418
- CCCCOC(=O)c1ccc(O)cc1: 8
- CCCN(CCC)c1c([N+](=O)[O-])cc(C(F)(F)F)cc1[N+](=O)[O-]: 0.3
- N#Cc1ccc(C(c2ccc(C#N)cc2)n2cncn2)cc1: 3.273
- CC12CC1(C)C(=O)N(c1cc(Cl)cc(Cl)c1)C2=O (stereo not drawn): 8
- CC(C)(c1ccc(O)cc1)c1ccc(O)cc1: 0.5365
- CC(C)(O)C(=O)Nc1ccc([N+](=O)[O-])c(C(F)(F)F)c1 [Hydroxyflutamide]: 0.8082
- CC(C)=CC1C(C(=O)OCN2C(=O)C3=C(CCCC3)C2=O)C1(C)C (stereo not drawn): 4.525
- C[C@]12CC[C@H]3C(=CCc4cc(O)ccc43)[C@@H]1CCC2=O: 1.401
- O=C1C[C@@H](c2ccc(O)cc2)Oc2cc(O)cc(O)c21: 8
- O=[N+]([O-])c1c(Cl)c(Cl)c(Cl)c(Cl)c1Cl: 5.807
- C[C@]12CC[C@@H]3c4ccc(O)cc4CC[C@H]3[C@@H]1CCC2=O: 0.4978

###

system: AR2 cells (HepG2-AR2)
# note: exactly 1 is not below, so it is no (0); use yes (1) for hill_ga (Hill model log AC50) strictly under it

* C#CCOS(=O)OC1CCCCC1Oc1ccc(C(C)(C)C)cc1 (centres unmarked) [Propargite] | yes (1)
* CCOC(=O)c1ccc(O)cc1 [Ethylparaben] | yes (1)
* O=C1c2ccccc2C(=O)N1SC(Cl)(Cl)Cl [Folpet] | no (0)
* CC(C)(C)CC(C)(C)c1ccc(O)cc1 [4-(1,1,3,3-Tetramethylbutyl)phenol] | no (0)
* CCNc1nc(Cl)nc(NC(C)C)n1 [Atrazine] | no (0)
* CC1(C)C(C=C(Cl)Cl)C1C(=O)OC(C#N)c1cccc(Oc2ccccc2)c1 (centres unmarked) [Cypermethrin] | yes (1)
* COC(=O)Nc1nc2ccccc2[nH]1 [Carbendazim] | no (0)
* O=c1cc(-c2ccc(O)cc2)oc2cc(O)cc(O)c12 [Apigenin] | no (0)

###

molecular target: human AR (Homo sapiens); assay: AR2 assay, antagonist mode: disruption of R1881 (10 nM)-induced AR homodimerization in HepG2-AR2 cells; format: cell-based; conditions: spid AR_antagonist; sheet antagonist_fits; 0 where win_model is Constant
# note: exactly 50 is not below, so it is Criterion not met; use Criterion met for hill_tp (Hill model top) strictly under it

- CC(C)(O)C(=O)Nc1ccc([N+](=O)[O-])c(C(F)(F)F)c1 [Hydroxyflutamide]: Criterion met
- CCCSP(=O)(OCC)SCCC: Criterion met
- CNC(=O)O/N=C(\SC)C(=O)N(C)C: Criterion met
- C[C@]12CC[C@@H]3c4ccc(O)cc4CC[C@H]3[C@@H]1CCC2=O: Criterion not met
- CNC(=O)Oc1cccc2c1OC(C)(C)C2: Criterion met
- CCCCOC(=O)c1ccc(O)cc1: Criterion not met

###

target: human AR (Homo sapiens, UniProt P10275); assay: AR2 assay, agonist mode: ligand-dependent AR homodimerization (NanoBiT luciferase complementation) in stable HepG2-AR2 cells; type: cell-based; conditions: sheet agonist_fits; Hill model top (efficacy); 0 given where win_model is Constant;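 as to hill tp: Log2 fold change of luminescence over DMSO vehicle wells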
Structures can show the parent of a compound that is named as a salt.
REPORTED_ENDPOINT: hill_tp

- CCN(CC)CCOc1ccc(/C(=C(/Cl)c2ccccc2)c2ccccc2)cc1 [Enclomiphene hydrochloride]: 0
- CC(C)(O)C(=O)Nc1ccc([N+](=O)[O-])c(C(F)(F)F)c1 [Hydroxyflutamide]: 5.723
- COC(=O)Nc1nc2ccccc2[nH]1: 0
- CC1(C)C(C=C(Cl)Cl)C1C(=O)OCc1cccc(Oc2ccccc2)c1 (centres unmarked): 0
- CCCN(CCC)c1c([N+](=O)[O-])cc(C(F)(F)F)cc1[N+](=O)[O-]: 0.2593

###

Target: UniProtKB P10275
Sequence (P10275 1-920) 1: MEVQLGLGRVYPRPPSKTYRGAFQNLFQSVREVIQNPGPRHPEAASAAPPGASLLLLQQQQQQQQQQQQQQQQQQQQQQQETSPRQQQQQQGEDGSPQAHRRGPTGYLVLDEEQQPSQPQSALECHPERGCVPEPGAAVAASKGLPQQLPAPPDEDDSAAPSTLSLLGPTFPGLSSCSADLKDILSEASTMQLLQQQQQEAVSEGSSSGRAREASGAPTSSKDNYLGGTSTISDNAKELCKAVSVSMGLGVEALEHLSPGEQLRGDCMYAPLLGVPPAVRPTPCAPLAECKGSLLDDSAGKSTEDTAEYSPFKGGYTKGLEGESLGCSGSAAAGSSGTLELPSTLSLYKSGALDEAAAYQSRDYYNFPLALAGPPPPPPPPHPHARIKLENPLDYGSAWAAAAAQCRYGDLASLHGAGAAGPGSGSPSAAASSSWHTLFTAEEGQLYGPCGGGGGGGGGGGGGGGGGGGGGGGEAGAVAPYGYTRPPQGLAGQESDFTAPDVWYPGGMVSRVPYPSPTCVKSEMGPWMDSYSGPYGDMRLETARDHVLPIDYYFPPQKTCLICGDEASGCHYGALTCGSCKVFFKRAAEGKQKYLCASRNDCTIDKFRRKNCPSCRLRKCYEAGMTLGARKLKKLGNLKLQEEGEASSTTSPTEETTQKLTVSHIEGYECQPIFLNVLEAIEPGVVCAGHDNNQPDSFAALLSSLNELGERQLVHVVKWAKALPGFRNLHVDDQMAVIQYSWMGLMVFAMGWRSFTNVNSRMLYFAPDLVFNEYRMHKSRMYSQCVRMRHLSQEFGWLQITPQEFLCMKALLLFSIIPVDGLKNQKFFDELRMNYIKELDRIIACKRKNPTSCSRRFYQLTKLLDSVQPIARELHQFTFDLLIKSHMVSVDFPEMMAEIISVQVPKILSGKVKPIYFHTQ
Sequence (P10275 1-920) 2: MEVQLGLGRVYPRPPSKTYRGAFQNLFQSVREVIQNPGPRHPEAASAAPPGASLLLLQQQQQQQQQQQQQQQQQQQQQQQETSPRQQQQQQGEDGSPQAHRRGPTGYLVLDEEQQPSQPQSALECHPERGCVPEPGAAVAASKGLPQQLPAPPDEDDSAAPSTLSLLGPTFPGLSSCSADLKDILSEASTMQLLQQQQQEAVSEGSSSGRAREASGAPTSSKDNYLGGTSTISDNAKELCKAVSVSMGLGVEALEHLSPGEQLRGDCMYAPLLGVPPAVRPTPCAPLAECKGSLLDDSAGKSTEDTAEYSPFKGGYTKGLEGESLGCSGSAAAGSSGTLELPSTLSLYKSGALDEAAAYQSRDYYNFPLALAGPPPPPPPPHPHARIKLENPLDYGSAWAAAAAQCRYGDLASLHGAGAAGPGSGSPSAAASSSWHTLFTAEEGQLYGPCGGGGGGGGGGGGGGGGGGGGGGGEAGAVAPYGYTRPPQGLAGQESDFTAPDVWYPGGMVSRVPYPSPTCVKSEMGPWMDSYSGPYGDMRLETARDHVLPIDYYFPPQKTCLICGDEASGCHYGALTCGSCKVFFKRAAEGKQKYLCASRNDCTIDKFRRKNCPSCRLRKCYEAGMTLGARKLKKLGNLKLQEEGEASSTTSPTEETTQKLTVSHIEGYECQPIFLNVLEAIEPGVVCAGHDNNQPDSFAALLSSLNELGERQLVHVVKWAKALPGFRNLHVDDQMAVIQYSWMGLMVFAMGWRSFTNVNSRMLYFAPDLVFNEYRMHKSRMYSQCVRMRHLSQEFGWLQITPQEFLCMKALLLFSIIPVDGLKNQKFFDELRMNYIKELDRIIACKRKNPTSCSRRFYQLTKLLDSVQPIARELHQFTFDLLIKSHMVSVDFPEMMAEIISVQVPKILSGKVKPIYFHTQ
Assay: AR2 assay, antagonist mode: disruption of R1881 (10 nM)-induced AR homodimerization in HepG2-AR2 cells
Assay type: cell-based
Settings: spid AR_antagonist; sheet antagonist_fits; 0 where win_model is Constant
Where a name gives a salt, the structure may show the parent alone.
REPORTED_ENDPOINT: hill_tp (Hill model top)

* CC1(C)[C@H](C(=O)O[C@H](C#N)c2cccc(Oc3ccccc3)c2)[C@@H]1C=C(Br)Br | 65.8008
* CCOP(=S)(OCC)Oc1nc(Cl)c(Cl)cc1Cl | 66.6083
* CC/C(=C(\c1ccc(O)cc1)c1ccc(OCCN(C)C)cc1)c1ccccc1 [Afimoxifene (4-Hydroxytamoxifen)] | 105.037
* O=c1c(-c2ccc(O)cc2)coc2cc(O)ccc12 | 87.2882
* CCN(CC)CCOc1ccc(C(=C(Cl)c2ccccc2)c2ccccc2)cc1 [Clomiphene citrate] | 106.625
